Assay: soluble on expression in E. coli; label from the status in PepcDB or PDB records

[
  {
    "biosequence": "MSDPDLELASRREIYQRIADTPGVHFRALLDELKYAQGTLQYQLRWLADKGLIDVSDDGKYTRYYPAAEFDEADRTVMNALRREYSRRILAHLLTDSPLSTTELSERLDKAQSTVSWHLSKLAEADLVTKERDGRSVVYEVSDPDRVKYLYTVHRRSFTDKVVDRILGLWDSY",
    "soluble on expression in E. coli": "not soluble"
  },
  {
    "biosequence": "MKFDRHRRLRSSATMRDMVRENHVRKEDLIYPIFVVEKDDVKKEIKSLPGVYQISLNLLESELKEAYDLGIRAIMFFGVPNSKDDIGTGAYIHDGVIQQATRIAKKMYDDLLIVADTCLCEYTDHGHCGVIDDHTHDVDNDKSLPLLVKTAISQVEAGADIIAPSNMMDGFVAEIRRGLDEAGYYNIPIMSYGVKYASSFFGPFRDAADSAPSFGDRKTYQMDPANRLEALRELESDLKEGCDMMIVKPALSYLDIVRDVKNHTNVPVVAYNVSGEYSMTKAAAQNGWIDEERVVMEQMVSMKRAGADMIITYFAKDICRYLDK",
    "soluble on expression in E. coli": "not soluble"
  }
]

* * *

Experiment: soluble on expression in E. coli; label from the status in PepcDB or PDB records

[
  {
    "biosequence": "MLKGHLHSVESLGTVDGPGLRYILFTQGCLLRCLYCHNPDTWKISEPSREVTVDEMVNEILPYKPYFDASGGGVTVSGGEPLLQMPFLEKLFAELKENGVHTCLDTSAGCANDTKAFQRHFEELQKHTDLILLDIKHIDNDKHIRLTGKPNTHILNFARKLSDMKQPVWIRHVLVPGYSDDKDDLIKLGEFINSLDNVEKFEILPYHQLGVHKWKTLGIAYELEDVEAPDDEAVKAAYRYVNFKGKIPVEL",
    "soluble on expression in E. coli": "not soluble"
  },
  {
    "biosequence": "MGHHHHHHSHMDTPENVLQMLEAHMQSYKGNDPLGEWERYIQWVEENFPENKEYLITLLEHLMKEFLDKKKYHNDPRFISYCLKFAEYNSDLHQFFEFLYNHGIGTLSSPLYIAWAGHLEAQGELQHASAVLQRGIQNQAEPREFLQQQYRLFQTRLTETHLPAQAR",
    "soluble on expression in E. coli": "not soluble"
  },
  {
    "biosequence": "PTQSPSEFIAELARCAQPIAQANDLYASVMMAQAIVESGWGASTLSKAPNYNLFGIKGSYNGQSVYMDTWEYLNGKWLVKKEPFRKYPSYMESFQDNAHVLKTTSFQAGVYYYAGAWKSNTSSYRDATAWLTGRYATDPSYNAKLNNVITAYNL",
    "soluble on expression in E. coli": "not soluble"
  }
]

* * *

Test: soluble on expression in E. coli; label from the status in PepcDB or PDB records

[
  {
    "biosequence": "MGPLVKEKYEEVEQIPLKKPHIVSLIGGFGYREPIFRKVLTTAALDSGINYTLISGPSLDPSKFKEIPKNVQILRFVGDTFPYIRSSDAVIAPGGHSTMMEALSFGTPILSFPDEGHSEQENNAAVIEEEGYGRMLSYSTPPEVILECIREVLEDKKYRDKVKRLQRLASELDGLEHHHHHH",
    "soluble on expression in E. coli": "soluble"
  },
  {
    "biosequence": "MSLSHSAEDSRRRELGAFLRSRRERLTPSATGISTGLRRRTPGLRREEVAMIAGVGTTWYTWLEQGRDVRPSVEVLTALSGALRLDAAEKRHLFTLAGRQLPERRRIAAGKVEGPLLHMLQSLVLQPAYVVGPRWDVLAWNDAAVAIFGDYGQLEGDARNIIHGVFTDPHRRHLLADWEQVARATLAAFRAESARYVGDPDFERLIALMMRSSPEFREWWPQRDVVHRLSGMKHLRHPTAGAMVFEHMSLSIDDGSDMKLIVYTPLAEQNSIAKLQSLLDAILRKEDRLKGIITITTDPNSSSVDKLAAALEHHHHHH",
    "soluble on expression in E. coli": "soluble"
  }
]

* * *

Experiment: soluble on expression in E. coli; label from the status in PepcDB or PDB records

[
  {
    "biosequence": "MSSHESLFDYEATLQACARGEKQALQRLYLQESARLLGVAQRLVRDSALAEDIVHDAFLKIWTHAASFDASRGSARGWIFSVTRHLALNTLRNTAREVRVEDDGSDDHHEQATLEGWQETGDAFDWRVNPGRMISCMEQLEPVRRNCIFHAYVDGYSHQEIAQKIGAPLGTVKAWIKRSLTALRECMG",
    "soluble on expression in E. coli": "not soluble"
  },
  {
    "biosequence": "MGSDKIHHHHHHMLTHSTNPRGGVVHAMQLSEALTALGHAVTLHAPDPKGTGFFRSPACGAACFPVPPALADMTALVEQRIADYIGHFEQADNRDFDVFHAHDGISGNALATLKSRGLIPSFVRTIHHIDQFEDPRLMVLQDRSIQRADAFLAVSAAWQAILRDSYGVDAKVVGNGVDNRRFSPAWSGEQTALRDRIGLHAGAVFLSIGGIEARKNTLGILDAFRQLRAVKPDAQLVIAGGVSLLDHRDYQEEFQSHLRALRDDAAAVHIIGAVSDDDMPNLYRLADALVFPSLKEGFGLVVLEAMASGVPAIVPSIAPFIDYLSGDDALWCDPLHSASIAEAMALALVPEIRERIIPRGLEVASRFTWRRVAEAHLSTYATLKEAAHA",
    "soluble on expression in E. coli": "not soluble"
  }
]

* * *

Assay: soluble on expression in E. coli; label from the status in PepcDB or PDB records
property: soluble on expression in E. coli

[
  {
    "biosequence": "MGSSHHHHHHSSGLVPRGSPTVTPTVNRENKPTCYPKAEISRLSASQIRNLNPVFGGSGPALTGLRNLGNTCYMNSILQCLCNAPHLADYFNRNCYQDDINRSNLLGHKGEVAEEFGIIMKALWTGQYRYISPKDFKITIGKINDQFAGYSQQDSQELLLFLMDGLHEDLNKADNRKRYKEENNDHLDDFKAAEHAWQKHKQLNESIIVALFQGQFKSTVQCLTCHKKSRTFEAFMYLSLPLASTSKCTLQDCLRLFSKEEKLTDNNRFYCSHCRARRDSLKKIEIWKLPPVLLVHLKRFSYDGRWKQKLQTSVDFPLENLDLSQYVIGPKNNLKKYNLFSVSNHYGGLDGGHYTAYCKNAARQRWFKFDDHEVSDISVSSVKSSAAYILFYTSLG",
    "property": "soluble on expression in E. coli",
    "value observed": "soluble"
  },
  {
    "biosequence": "MEDFWEDWDLAFEDVFPKSLKEALEGIKEIPTYGERGASRFMYNLLKLEKEKRKEIIEKVLEAVEVLRPCRECFLITDREVCPICSDEKRSKKFICVVEESQDAYAIEKLERYKGVYHVLQGHIAPLEGISAEDLTIDALMERIKKYQPKEVILATNPNVEGEATANYIAGLIRRKFPAVKITRTAYGFQFGSLIEFVDEYSLEKSMENRK",
    "property": "soluble on expression in E. coli",
    "value observed": "soluble"
  }
]

* * *

Experiment: soluble on expression in E. coli; label from the status in PepcDB or PDB records

[
  {
    "biosequence": "MGSDKIHHHHHHMRYLSKDILEEVITQRPSDSYKSNFGRVVLIGGNRQYGGAIIMSTEACINSGAGLTTVITDVKNHGPLHARCPEAMVVGFEETVLLTNVVEQADVILIGPGLGLDATAQQILKMVLAQHQKQQWLIIDGSAITLFSQGNFSLTYPEKVVFTPHQMEWQRLSHLPIEQQTLANNQRQQAKLGSTIVLKSHRTTIFHAGEPFQNTGGNPGMATGGTGDTLAGIIAGFLAQFKPTIETIAGAVYLHSLIGDDLAKTDYVVLPTKISQALPTYMKKYAQPHTAPDSELLEQKRSR",
    "soluble on expression in E. coli": "not soluble"
  },
  {
    "biosequence": "MGSDKIHHHHHHMKPERILNVPGAVNFRELGGYQTKFNQTIKWQKLLRSGELSHLTPRTQALLADYGLKYDIDLRSPAEASWSSDKIPAQTIYRFYPVYPIQDNEKSDLPQNKHLKYQAYEQSLYDPYLTMAFSEHSRIAFHQMFVDLLANTNEKESLLFHCAAGKDRTGMAGMLILSALQVPYQTIREDYLLTNLVYSNQDPDELRRQITGKHVDKLIQKMNSVFSVTASSLDHTHDLILDRFGSFDHYFKEALEFSDQDLADLRQIYLE",
    "soluble on expression in E. coli": "not soluble"
  },
  {
    "biosequence": "MGIKKKYGEGKMDIKPIRKKRVYQAIIEQIQQFIRQGQLKPGDKLPSERDLAEKFQVSRTTIKEAIAVMEAIGVLEIRPGVGTFVRETGNHFLDLNYIFGDDDTEIQELMEFRQAIEVEAAYYAAIRGTEDGKRKLTQLFSELEKEVMSGKLPAKSDFSFHMQISSMSQNALFLRIMEFISDKLFKSVTKNAVNTFAGAGDPVRVLQEHRAIYEAILSGDGVKARQAMRYHLESVIARYKGI",
    "soluble on expression in E. coli": "soluble"
  },
  {
    "biosequence": "SSKALLALKSQVEKRKAELQTQNRTKKWKRIGDQWKEEDKIQEQETFLEAHSPIESKQENGTETSNKEPPLLKEEVIERLRAWEQPATLFGETDYERYIRLRDLELRNSEESKGQRNIFQQKLRQFKEKDELENFYRVTEMELPSKGSAAQKVKEEIYAAEEGPEFFKTPEEYCFRYMRRLLKMWKAEVEQLDEETKRTSLGRKTLATFEQTKEYLKPLFRKLKKQQLDKSILTSLEKILRYVEQREYVLANDEYLRLAIGNAPWPVGATMVGIHARTAREKISEGKIAHVMNDEETRKYIQAVKRLITLSQKWYPTVPSKMVVG",
    "soluble on expression in E. coli": "soluble"
  },
  {
    "biosequence": "MEAVHCFRCYKFPSKQIEFYLTNCMHMFCIECERLCHPPEEEPLKCIQCSKTPIRIVKMGPELPMTIKSMFTPISEEINQYTRDLTRVLTFQHRQRASLSTFLERKVAAFDRLRDAYSEEKTKKEHYKKQLEEAYHLLKSKEHEISKLKKQLAEQAPPPQTPPRSNSLKVASSRSLETPSMMRVFSDSMYETPVQIQRRFTKAQAKAEAEAEAPAKSPGSKAQTTKCTSNYQSHPPASFETPIHHPPKTSMGFTTPANPPHMFPYLKKHEAQREKHKEHRNSQ",
    "soluble on expression in E. coli": "not soluble"
  },
  {
    "biosequence": "TLTIYPAAKPNGLAVVACPGGGYIRLAMNHEGHDMADWFNAQGITYAVLKYRMPNGHHDVPLSDAHQAIRLMREHANEWHIQKVGIMGASAGGHLASTAATHYTAGTRPDFQILFYPVISMDLSNCHKGSRDNLLGKSPSEELVRLYSNELQVTGDTPPAFIMHSSDDGAVPVSNSVSYYLALVKNKVPASLHTYPIGGHGWGFRDSFTYKRQWTGELEKWLREIL",
    "soluble on expression in E. coli": "not soluble"
  },
  {
    "biosequence": "MGSDKIHHHHHHMKSRFYRPLSLASVSPSYFPEIALYVRNSGNYILYKNHDRQFTEEDRHRLERTNTSFLYVRSGDMDAVTEYLEQNLDTLLARDDIDSNAKGTILYQTAANYVTDVFDEPGKTADIIRCRSLIRHLMKYVAGHEDALKALQAITSQNYYIFTHSVQVAALMMLVHDRLFRLNQDEMIDVGIGSLLHDVGMVFLSGQLLDKPDALAAIEYHKAKQHAQKGYEHLQSAGTLSEVSLTIVRHHHEKYDGSGYPAGLKGDDIPRSAQLAALCDTYCAMTTDRPKHTALPGAEALRIMEDEVGGAFSPDLFYRFADVVKGKGKA",
    "soluble on expression in E. coli": "not soluble"
  },
  {
    "biosequence": "MGSDKIHHHHHHMVIVARCNHNGSNLTEQFPPINDIRSNSRQLVRELGFMGGDFAGTDLPPSSVHALIEIEACPGITAKDLGKLLRLEKSSVSRMLRKLILSGDIVEQTDDVDSRIKRLRLTGQGREKVSGINGFANRQVSGALAQLTATDAHTILEGLRLYAGALGARTGTPASTVDIKQGYRPGIIARITQMHALYYARTSGFGQRFESVVAEGLAAFCNRLENPRNAIWVAMRGQEIIGSVAIDGEDLGADIAHLRWFIVDDGIRGGGVGRRLLATALAFADQAGFAETHLWTFNGLLAARHLYETHGFTCTEEYPGSQWGSEVLEQRFIRPRPE",
    "soluble on expression in E. coli": "not soluble"
  },
  {
    "biosequence": "MGSDKIHHHHHHMRKMMNEQLPISKSSPLKARFYDYPYFTYPWHFHTEYEIIYVKEGTGMRFVGNNAEKYADGDILLLGSDLPHYMKSDEVYRQEGSTLRTTGTIIQFEKDFMHHAFNYYPHFMKIKNLLEEAQRGIYFPAGCSPRLVDLLESIPVETGVDQITSFLQLLKEMANVASRSVLSTSDFENDIIYDGSRIDKIIVYLNKNYTRQIDLNEISSLAAMNPAAFCRFFKSKTGKSFKNYILEMRIGYACKLLLMGDMNISQISVECGFDTISHFNKSFKKHTGFTPSYYKRMMLAE",
    "soluble on expression in E. coli": "not soluble"
  },
  {
    "biosequence": "MSPVEAALETLAHTMGITVIETSKLGSTLNACFHPPTQTIFIKIGLDPVTRRCAIAHELGHAHYGHNCSTPGAERQADEWAAQQLLDVGDVEAVGLECEGSAAAMAAELGVTPHLLVLWMGMYERGRIQPEKRAC",
    "soluble on expression in E. coli": "not soluble"
  }
]
